- Test system: human apolipoprotein B mRNA
- ASSAY TEXT: Inhibition of human apolipoprotein B mRNA levels in HepG2 cells, quantitative real-time PCR
- Type: cell-based
- STUDY CONDITIONS: Table 19 dose response; HepG2 cells, 37 nM; normalized to untreated control
In the oligonucleotide strings, read from the 5' end, every base follows the letter of its sugar. An asterisk marks phosphorothioate; unmarked linkages are phosphodiester. Other units and linkages are bracketed, terminal groups are in braces. A string of capitals states the bases alone. e = 2'-O-(2-methoxyethyl) (MOE); [5mC] = 5-methylcytosine; d = 2'-deoxy (DNA)
MEASURED METRIC: % inhibition 37 nM
# answer = value followed by unit

Examples with answers:
{"columns": ["SUBSTANCE", "TESTED TARGET", "% inhibition 37 nM"],
 "data": [
  ["301045 (eA*eG*e[5mC]*eA*eA*dA*dA*dT*dA*dA*d[5mC]*dT*d[5mC]*dA*dG*eA*eT*e[5mC]*e[5mC]*eT; antisense) [compound 301045]", "human apolipoprotein B mRNA", "77%"],
  ["301031 (eA*eA*eG*eG*e[5mC]*dT*dG*dG*d[5mC]*dT*d[5mC]*dA*d[5mC]*dT*dG*eT*eA*eT*eG*eG; antisense) [compound 301031]", "human apolipoprotein B mRNA", "61%"],
  ["271009 (antisense eG*e[5mC]*e[5mC]*eT*e[5mC]*dA*dG*dT*d[5mC]*dT*dG*d[5mC]*dT*dT*d[5mC]*eG*e[5mC]*eG*e[5mC]*e[5mC]) [compound 271009]", "human apolipoprotein B mRNA", "82%"]
]}

INPUT: Request the reported % inhibition 37 nM associated with 301027 (eG*e[5mC]*eT*e[5mC]*eA*d[5mC]*dT*dG*dT*dA*dT*dG*dG*dT*dT*eT*eT*eA*eT*e[5mC]; antisense) [compound 301027]
OUTPUT: 80%

INPUT: Entry under review: 301036 (eT*eT*eT*eG*eG*dT*dG*d[5mC]*dA*dG*dG*dT*d[5mC]*d[5mC]*dA*eG*eT*eT*e[5mC]*eA; antisense) [compound 301036] . Reported % inhibition 37 nM?
OUTPUT: 67%

INPUT: Need % inhibition 37 nM of 301034 (eT*eG*e[5mC]*eT*eT*dA*dT*dA*dG*dT*d[5mC]*dT*dA*d[5mC]*dT*eG*e[5mC]*e[5mC]*eT*eA; antisense) [compound 301034] , thanks.
OUTPUT: 73%

INPUT: Consider the substance shown here: 301028 (eG*eG*e[5mC]*eT*e[5mC]*dA*d[5mC]*dT*dG*dT*dA*dT*dG*dG*dT*eT*eT*eT*eA*eT; antisense) [compound 301028] What is its recorded % inhibition 37 nM?
OUTPUT: 70%

* * *

- ASSAY TEXT: ob/ob mice (Example 50): cholesterol, lipid, triglyceride, liver enzyme and glucose levels
- Type: in vivo, mouse
- STUDY CONDITIONS: high fat high cholesterol diet, 50 mg/kg i.p. twice a week, six weeks
In the oligonucleotide strings, read from the 5' end, every base follows the letter of its sugar. An asterisk marks phosphorothioate; unmarked linkages are phosphodiester. Other units and linkages are bracketed, terminal groups are in braces. A string of capitals states the bases alone. e = 2'-O-(2-methoxyethyl) (MOE); [5mC] = 5-methylcytosine; d = 2'-deoxy (DNA)
Listing of recorded Glucose by entry.
Your answer is read as mg/dL, so omit the unit and give the number.

A selection of reference data follows.
{"columns": ["SUBSTANCE", "RESULT"],
 "data": [
  ["147483 (ATGTCAATGCCACATGTCCA; phosphorothioate, 2'-MOE wings, chemistry not fully specified) [compound 147483]", 213.2],
  ["141923 (CCTTCCCTGAAGGTTCCTCC; listed as DNA, chemistry not given here) [compound 141923]", 328.5]
]}

INPUT: Would you kindly share the measured Glucose for 116847 (antisense CTGCTAGCCTCTGGATTTGA; listed as DNA, chemistry not given here) [compound 116847] ?
OUTPUT: 135.5

INPUT: Bench note: what Glucose did 147764 (eG*eT*e[5mC]*e[5mC]*e[5mC]*dT*dG*dA*dA*dG*dA*dT*dG*dT*d[5mC]*eA*eA*eT*eG*e[5mC]) [compound 147764] show?
OUTPUT: 209.2

* * *

- Test system: human apolipoprotein B mRNA
- ASSAY TEXT: Inhibition of human apolipoprotein B mRNA levels in HepG2 cells, quantitative real-time PCR
- Assay type: cell-based
- STUDY CONDITIONS: HepG2 cells; 50 nM; 24 hour (Table 41)
In the oligonucleotide strings, read from the 5' end, every base follows the letter of its sugar. An asterisk marks phosphorothioate; unmarked linkages are phosphodiester. Other units and linkages are bracketed, terminal groups are in braces. A string of capitals states the bases alone. e = 2'-O-(2-methoxyethyl) (MOE); [5mC] = 5-methylcytosine; d = 2'-deoxy (DNA)
Listed here: items and their measured % Change in apolipoprotein B mRNA expression.
Answer with a number only, understood to be in %.

{"columns": ["SUBSTANCE", "UNIT SPEC", "RESULT"],
 "data": [
  ["332782 (antisense TCAGTCTGCTTCGC; all phosphorothioate, sugars by position and methylation of C not given here; 2'-MOE wings flank a DNA gap) [compound 332782]", "%", "−16"],
  ["332778 (antisense GCCTCAGTCTGCTTC; sugars from the 5' end e5 d10, linkages s4 o1 s9 (s phosphorothioate, o phosphodiester), methylation of C not given here) [compound 332778]", "%", "−20"],
  ["301012 (eG*e[5mC]*e[5mC]*eT*e[5mC]*dA*dG*dT*d[5mC]*dT*dG*d[5mC]*dT*dT*d[5mC]*eG*e[5mC]*eA*e[5mC]*e[5mC]) [compound 301012]", "%", "−72"]
]}

INPUT: # input substance: 332780 (antisense CCTCAGTCTGCTTCGCAC; sugars from the 5' end e4 d10 e4, all phosphorothioate, methylation of C not given here) [compound 332780] ; wanted: its % Change in apolipoprotein B mRNA expression
OUTPUT: −43

INPUT: Value lookup for % Change in apolipoprotein B mRNA expression; key = 332784 (antisense GCCTCAGTCT; linkages s4 o1 s4 (s phosphorothioate, o phosphodiester), sugars by position and methylation of C not given here; 2'-MOE wings flank a DNA gap) [compound 332784]
OUTPUT: −1

* * *

- Test system: human apolipoprotein B mRNA
- ASSAY TEXT: Inhibition of human apolipoprotein B mRNA levels in HepG2 cells, quantitative real-time PCR
- Format: cell-based
- STUDY CONDITIONS: Table 1; HepG2 cells, 150 nM; averages from two experiments
In the oligonucleotide strings, read from the 5' end, every base follows the letter of its sugar. An asterisk marks phosphorothioate; unmarked linkages are phosphodiester. Other units and linkages are bracketed, terminal groups are in braces. A string of capitals states the bases alone. e = 2'-O-(2-methoxyethyl) (MOE); [5mC] = 5-methylcytosine; d = 2'-deoxy (DNA)
Field: class. Source value: % INHIB. Ranges: band A (below 30%), band B (30% to below 40%), band C (40% or more)

As a guide, the following entries are already answered.
{"columns": ["SUBSTANCE", "CLASS LABEL"],
 "data": [
  ["147806 (antisense eA*eT*eG*eT*eG*dG*dT*dA*dA*d[5mC]*dG*dA*dG*d[5mC]*d[5mC]*e[5mC]*eG*eA*eA*eG) [compound 147806]", "band C"],
  ["147828 (antisense eA*e[5mC]*eG*eT*eT*dA*dT*d[5mC]*d[5mC]*dT*dT*dG*dA*dG*dT*e[5mC]*e[5mC]*e[5mC]*eT*eG) [compound 147828]", "band A"],
  ["147784 (antisense e[5mC]*eA*eG*e[5mC]*eG*d[5mC]*d[5mC]*dA*dG*d[5mC]*dA*dG*d[5mC]*dG*d[5mC]*e[5mC]*eA*eG*e[5mC]*eA) [compound 147784]", "band C"],
  ["147801 (antisense e[5mC]*eA*eG*eA*e[5mC]*d[5mC]*d[5mC]*dG*dA*d[5mC]*dT*d[5mC]*dG*dT*dG*eG*eA*eA*eG*eA) [compound 147801]", "band B"],
  ["147833 (antisense eA*eT*eG*eA*eT*dA*d[5mC]*dA*d[5mC]*dA*dA*dT*dA*dA*dA*eG*eA*e[5mC]*eT*e[5mC]) [compound 147833]", "band A"],
  ["147816 (antisense eT*e[5mC]*eA*eT*eA*d[5mC]*dG*dT*dT*dT*dA*dG*d[5mC]*d[5mC]*d[5mC]*eA*eA*eT*e[5mC]*eT) [compound 147816]", "band C"],
  ["147815 (antisense eT*eG*eG*e[5mC]*e[5mC]*dT*dA*d[5mC]*d[5mC]*dA*dG*dA*dG*dA*d[5mC]*eA*eG*eG*eT*eA) [compound 147815]", "band C"],
  ["147790 (antisense eT*eG*eT*eG*e[5mC]*dT*dA*d[5mC]*d[5mC]*dA*dT*d[5mC]*d[5mC]*d[5mC]*dA*eT*eA*e[5mC]*eT*eT) [compound 147790]", "band B"],
  ["147789 (antisense eG*eG*eA*eA*eG*dA*dG*dG*dT*dG*dT*dT*dG*d[5mC]*dT*e[5mC]*e[5mC]*eT*eT*eG) [compound 147789]", "band A"]
]}

Continue with the substance presented below.
INPUT: Class for 147792 (antisense eG*eG*eA*e[5mC]*eA*d[5mC]*d[5mC]*dT*d[5mC]*dA*dA*dT*d[5mC]*dA*dG*e[5mC]*eT*eG*eT*eG) [compound 147792] ?
OUTPUT: band A
